Assay: Evaluated for the solubility in aqueous solution at pH 5.0
Type: ADME
measurement kind: solubility (mM)

A: COc1ccc2cc(C(C)C(=O)OCCCCOC(=O)CCCN3CCN(C)CC3)ccc2c1 (stereo not given)
B: COc1ccc2cc(C(C)C(=O)OCCCCOC(=O)CCN3CCN(C)CC3)ccc2c1 (stereo not given)
C: COc1ccc2cc(C(C)C(=O)OCCCCOC(=O)CN3CCN(C)CC3)ccc2c1 (stereo not given)
D: COc1ccc2cc(C(C)C(=O)OCCOC(=O)CN3CCOCC3)ccc2c1 (stereo not given)
E: COc1ccc2cc(C(C)C(=O)OCCOC(=O)CN3CCN(C)CC3)ccc2c1 (stereo not given)
input: Put the above molecules in order of rising solubility, beginning with the smallest. Reply with the labels, ordered as the question asks.
output: D, E, C, A, B
